Tested on: SCID mice bearing twin HEK293-CCK2i4svR and wtHEK293 tumors
Test: Biodistribution in SCID mice bearing twin HEK293-CCK2i4svR and wtHEK293 xenografts
Assay type: in vivo
Conditions: 4 h pi
// reported Biodistribution, Blood for each item listed
State just the number; it will be interpreted in %IA/g.

Before answering, review these 2 worked examples.
| compound | value.units | Biodistribution, Blood |
| --- | --- | --- |
| CC(C)(C)C(=O)CN1C(=O)[C@H](NC(=O)Nc2cccc(C(=O)NCCOCCOCCOCCNC(=O)[C@H](CCC(=O)O)NC(=O)CCC(C(=O)O)N3CCN(CC(=O)[O-])CCN(CC(=O)[O-])CCN(CC(=O)[O-])CC3)c2)CN(C2CCCCC2)c2ccccc21.[177Lu+3] (stereo in doubt) [[^177Lu]Lu-GAS3] | %IA/g | 3.19 |
| CC(C)(C)C(=O)CN1C(=O)[C@H](NC(=O)Nc2cccc(C(=O)NCCOCCOCCOCCNC(=O)[C@H](CCC(=O)O)NC(=O)CCC(C(=O)O)N3CCN(CC(=O)[O-])CCN(CC(=O)[O-])CCN(CC(=O)[O-])CC3)c2)CN(C2CCCCC2)c2ccccc21.[67Ga+3] (stereo in doubt) [[^67Ga]Ga-GAS3] | %IA/g | 2.23 |

Consider the record given below.
Quick note, Biodistribution, Blood for CC(C)(C)C(=O)CN1C(=O)[C@H](NC(=O)Nc2cccc(C(=O)NCCOCCOCCOCCNC(=O)[C@H](CCC(=O)O)NC(=O)CN3CCN(CC(=O)[O-])CCN(CC(=O)[O-])CCN(CC(=O)[O-])CC3)c2)CN(C2CCCCC2)c2ccccc21.[111In+3] (stereo in doubt) [[^111In]In-GAS1] landed at 3.51

###

Test system: SCID mice bearing twin HEK293-CCK2i4svR and wtHEK293 tumors
Test: Biodistribution in SCID mice bearing twin HEK293-CCK2i4svR and wtHEK293 xenografts
Assay type: in vivo
Conditions: 4 h pi
// Biodistribution, Intestines lookup, one value per entry
State just the number; it will be interpreted in %IA/g.

Form field Biodistribution, Intestines, entry CC(C)(C)C(=O)CN1C(=O)[C@H](NC(=O)Nc2cccc(C(=O)NCCOCCOCCOCCNC(=O)[C@H](CCC(=O)O)NC(=O)CCC(C(=O)O)N3CCN(CC(=O)[O-])CCN(CC(=O)[O-])CCN(CC(=O)[O-])CC3)c2)CN(C2CCCCC2)c2ccccc21.[177Lu+3] (stereo in doubt) [[^177Lu]Lu-GAS3] : 1.85

Biodistribution, Intestines in this record for CC(C)(C)C(=O)CN1C(=O)[C@H](NC(=O)Nc2cccc(C(=O)NCCOCCOCCOCCNC(=O)[C@H](CCC(=O)O)NC(=O)CCC(C(=O)O)N3CCN(CC(=O)[O-])CCN(CC(=O)[O-])CCN(CC(=O)[O-])CC3)c2)CN(C2CCCCC2)c2ccccc21.[67Ga+3] (stereo in doubt) [[^67Ga]Ga-GAS3] : 1.59

# Biodistribution, Intestines (compound: CC(C)(C)C(=O)CN1C(=O)[C@H](NC(=O)Nc2cccc(C(=O)NCCOCCOCCOCCNC(=O)[C@@H](CCC(=O)O)NC(=O)CCC(C(=O)O)N3CCN(CC(=O)[O-])CCN(CC(=O)[O-])CCN(CC(=O)[O-])CC3)c2)CN(C2CCCCC2)c2ccccc21.[111In+3] (stereo partly drawn) [[^111In]In-GAS3] ) is 1.66

###

Test system: SCID mice bearing twin HEK293-CCK2i4svR and wtHEK293 tumors
Assay: Biodistribution in SCID mice bearing twin HEK293-CCK2i4svR and wtHEK293 xenografts
Assay type: in vivo
Conditions: 24 h pi
assay.metric: Biodistribution, Blood
Report the figure along with its unit, number first.

Examples with their reported Biodistribution, Blood follow.
| compound | Biodistribution, Blood |
| --- | --- |
| CC(C)(C)C(=O)CN1C(=O)[C@H](NC(=O)Nc2cccc(C(=O)NCCOCCOCCOCCNC(=O)[C@H](CCC(=O)O)NC(=O)CN3CCN(CC(=O)[O-])CCN(CC(=O)[O-])CCN(CC(=O)[O-])CC3)c2)CN(C2CCCCC2)c2ccccc21.[111In+3] (stereo in doubt) [[^111In]In-GAS1] | 0.08 ± 0.01 %IA/g |
| CC(C)(C)C(=O)CN1C(=O)[C@H](NC(=O)Nc2cccc(C(=O)NCCOCCOCCOCCNC(=O)[C@H](CCC(=O)O)NC(=O)CN3CCN(CC(=O)[O-])CCN(CC(=O)[O-])CCN(CC(=O)[O-])CC3)c2)CN(C2CCCCC2)c2ccccc21.[177Lu+3] (stereo in doubt) [[^177Lu]Lu-GAS1] | 0.06 ± 0.00 %IA/g |
| CC(C)(C)C(=O)CN1C(=O)[C@H](NC(=O)Nc2cccc(C(=O)NCCOCCOCCOCCNC(=O)[C@@H](CCC(=O)O)NC(=O)CCC(C(=O)O)N3CCN(CC(=O)[O-])CCN(CC(=O)[O-])CCN(CC(=O)[O-])CC3)c2)CN(C2CCCCC2)c2ccccc21.[111In+3] (stereo partly shown) [[^111In]In-GAS3] | 0.08 ± 0.01 %IA/g |

API: the following record is the query input.
GET /value?item= CC(C)(C)C(=O)CN1C(=O)[C@H](NC(=O)Nc2cccc(C(=O)NCCOCCOCCOCCNC(=O)[C@H](CCC(=O)O)NC(=O)CN3CCN(CC(=O)[O-])CCN(CC(=O)[O-])CCN(CC(=O)[O-])CC3)c2)CN(C2CCCCC2)c2ccccc21.[67Ga+3] (stereo in doubt) [[^67Ga]Ga-GAS1] &field=Biodistribution, Blood returns 0.08 ± 0.01 %IA/g

###

Tested on: SCID mice bearing twin HEK293-CCK2i4svR and wtHEK293 tumors
Test: Biodistribution in SCID mice bearing twin HEK293-CCK2i4svR and wtHEK293 xenografts
Assay type: in vivo
Settings: 4 h pi
# Biodistribution, Stomach annotations
Numbers only; they are read as %IA/g.

| compound | value.units | Biodistribution, Stomach |
| --- | --- | --- |
| CC(C)(C)C(=O)CN1C(=O)[C@H](NC(=O)Nc2cccc(C(=O)NCCOCCOCCOCCNC(=O)[C@H](CCC(=O)O)NC(=O)CCC(C(=O)O)N3CCN(CC(=O)[O-])CCN(CC(=O)[O-])CCN(CC(=O)[O-])CC3)c2)CN(C2CCCCC2)c2ccccc21.[67Ga+3] (stereo in doubt) [[^67Ga]Ga-GAS3] | %IA/g | 0.61 |
| CC(C)(C)C(=O)CN1C(=O)[C@H](NC(=O)Nc2cccc(C(=O)NCCOCCOCCOCCNC(=O)[C@H](CCC(=O)O)NC(=O)CCC(C(=O)[O-])N3CCN(CC(=O)[O-])CCN(CC(=O)[O-])CC3)c2)CN(C2CCCCC2)c2ccccc21.[67Ga+3] (stereo in doubt) [[^67Ga]Ga-GAS2] | %IA/g | 0.14 |
| CC(C)(C)C(=O)CN1C(=O)[C@H](NC(=O)Nc2cccc(C(=O)NCCOCCOCCOCCNC(=O)[C@H](CCC(=O)O)NC(=O)CN3CCN(CC(=O)[O-])CCN(CC(=O)[O-])CCN(CC(=O)[O-])CC3)c2)CN(C2CCCCC2)c2ccccc21.[67Ga+3] (stereo in doubt) [[^67Ga]Ga-GAS1] | %IA/g | 0.37 |

The reported Biodistribution, Stomach of the compound CC(C)(C)C(=O)CN1C(=O)[C@H](NC(=O)Nc2cccc(C(=O)NCCOCCOCCOCCNC(=O)[C@@H](CCC(=O)O)NC(=O)CCC(C(=O)O)N3CCN(CC(=O)[O-])CCN(CC(=O)[O-])CCN(CC(=O)[O-])CC3)c2)CN(C2CCCCC2)c2ccccc21.[111In+3] (stereo partly shown) [[^111In]In-GAS3] was 0.91

###

Assay: Radioligand stability in mice (radio-HPLC of blood and urine)
Type: in vivo
Details: mice blood collected 5 min pi; mean ± SD
Quick reference for Intact radioligand in blood among some compounds

The recorded Intact radioligand in blood for entry CC(C)(C)C(=O)CN1C(=O)[C@H](NC(=O)Nc2cccc(C(=O)NCCOCCOCCOCCNC(=O)[C@H](CCC(=O)O)NC(=O)CN3CCN(CC(=O)[O-])CCN(CC(=O)[O-])CCN(CC(=O)[O-])CC3)c2)CN(C2CCCCC2)c2ccccc21.[177Lu+3] (stereo in doubt) [[^177Lu]Lu-GAS1] equals 81.1 ± 8.2 (3) %

###

Biodistribution, CCK2i4svR(-) Tumor values, listed per item
System: SCID mice bearing twin HEK293-CCK2i4svR and wtHEK293 tumors
Assay: Biodistribution in SCID mice bearing twin HEK293-CCK2i4svR and wtHEK293 xenografts
Assay type: in vivo
Details: 4 h pi
Please state the figure in %IA/g; there is no need to write the unit.

| compound | measured.number |
| --- | --- |
| CC(C)(C)C(=O)CN1C(=O)[C@H](NC(=O)Nc2cccc(C(=O)NCCOCCOCCOCCNC(=O)[C@@H](CCC(=O)O)NC(=O)CCC(C(=O)O)N3CCN(CC(=O)[O-])CCN(CC(=O)[O-])CCN(CC(=O)[O-])CC3)c2)CN(C2CCCCC2)c2ccccc21.[111In+3] (some centres unmarked) [[^111In]In-GAS3] | 0.85 |

For the compound CC(C)(C)C(=O)CN1C(=O)[C@H](NC(=O)Nc2cccc(C(=O)NCCOCCOCCOCCNC(=O)[C@@H](CCC(=O)O)NC(=O)CCC(C(=O)[O-])N3CCN(CC(=O)[O-])CCN(CC(=O)[O-])CC3)c2)CN(C2CCCCC2)c2ccccc21.[111In+3] (some centres unmarked) [[^111In]In-GAS2] , the measured Biodistribution, CCK2i4svR(-) Tumor on SCID mice bearing twin HEK293-CCK2i4svR and wtHEK293 tumors was 1.82
